Each record here notes measured protein stability index.
B1: TRIB1 (parent)
chain: EIGTSDQIVPEYQEDSDISSFFC

# Variants of: B1
# assay_details: protein stability index of a GFP-peptide fusion (GPS, HEK-293T) (PSI 1-6); higher = more stable;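 further: lentivirally expressed fusions sorted by FACS into six bins by GFP to DsRed ratio, PSI derived from sequencing read proportions per bin multiplied by bin number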
# condition_label: c terminus: native
Form field (numeric): enter value without unit.

{"variant_annotation": "I8H", "observed_property": "protein stability index", "data_value": 5.15}
{"variant_annotation": "E1F", "observed_property": "protein stability index", "data_value": 2.15}
{"variant_annotation": "S19N", "observed_property": "protein stability index", "data_value": 2.92}

[in] Return value of protein stability index for input Q13V , no commentary.
[out] 2.52

[in] Return value of protein stability index for input F22L , no commentary.
[out] 3.36

Data origin, for the record: the supplement of paper PMC10567573
